Test system: DeltatarO mutant
Experiment: S. aureus survival, RN4220 and DeltatarO strains – OD600, teichoic acid synthesis inhibitors, primary screen (AID 463173)
Conditions: S. aureus RN4220 wild type/DeltatarO growth, OD600, 18 h, active compounds read low, screened at 18.75 µg/mL (by protocol)
About 4,300 (8.3%) of roughly 52,000 compounds were called active. This excerpt belongs to a sample that is enriched for actives.
Threshold 60%: survival strictly smaller gives MET, otherwise NOT MET.

hey, is survival for `CCOC(=O)Cc1ccc(NC(=O)N2CCC(CN3CCC(C)CC3)CC2)cc1` lower than 60% or not? NOT MET

Regarding `COc1ccccc1Cn1cc(C(=O)c2ccccc2)c(=O)c2cc(OC)c(OC)cc21` , kindly confirm whether its survival is beneath 60%. MET

Record `Cc1ccccc1OC(=O)CSc1nnc(-c2ccc(F)cc2)o1` : is its survival strictly below 60%? NOT MET

# TODO verify survival < 60% strictly for this compound: CS(=O)(=O)N1CCSC1c1ccc(Cl)cc1Cl (stereo unspecified) NOT MET

Is the reported survival for `Cc1ccc(CN(C(=O)COc2cccc([N+](=O)[O-])c2)c2ccccn2)o1` strictly below 60%? NOT MET

Hello, the source for this data is PubChem BioAssay AID463173, in case you need it.
